- assayed_system: T1, HLA-A*0201 (human)
- T1 construct: MHC monomer first loaded with a UV-sensitive peptide that is cleaved and exchanged for the test peptide; captured on streptavidin; also called peptide-receptive MHC molecules
- assay_overview: UV-ligand exchange, streptavidin/anti-b2m sandwich ELISA
measured_endpoint: Average exchange yield in % (%)

[I] ALMDKEGLTAL (synthetic peptide from TANC2) [TANC2-001]
[II] TLWYRAPEV (synthetic peptide from CDK4/CDK6) [CDK4-001]
# input Select one: I or II . Criterion: greater recorded Average exchange yield in %. Lab log: write the label of the selected item as the result.
# output I
(I: 71%, II: 45%)

[P] VLSVVEVTL (synthetic peptide from RNF213) [RNF213-001]
[Q] SISDVIAQV (synthetic peptide from ANKH) [ANKH-001]
# input Hi! Which is lower in terms of Average exchange yield in %, the first one P or the second one Q ? Lab log: write the label of the selected item as the result.
# output Q
